# Tested on: HT29 colon
# measurement description: NCI tumour cell line growth inhibition, 48 h
value kind: TGI

Some entries whose results are on file:
COc1cc(O)c2c(=O)c(OC)c(-c3ccc(OC)c(OC)c3)oc2c1.[Sn]; > 100 µM
O=c1cc(NNc2cccc(F)c2)[nH]c(=S)[nH]1; > 100 µM
CC(=O)OC12OC(C)(C3C(=O)N(c4ccccc4)C(=O)C31)N(c1ccccc1)C2=O (stereo not drawn); > 100 µM

Please give TGI, item by item, for the list that follows.
1. c1ccc(N2N=NC3C4CC(C5c6ccccc6C45)C32)cc1 (stereo not drawn)
2. COc1cc(/C=C2\CC3C4CCC5=CC(=O)CC[C@]5(C)C4CC[C@]3(C)C2=O)ccc1OCCN1CCCCC1 (stereo partly drawn)

Completion:
1. 40.3 µM
2. 64.8 µM

The reported measurements were obtained from PubChem BioAssay (NCI).
